Can you tell me IC50 for the items I'm about to list?
# system: human VPAC1 (Homo sapiens, UniProt P32241)
# Sequence (P32241 31-457): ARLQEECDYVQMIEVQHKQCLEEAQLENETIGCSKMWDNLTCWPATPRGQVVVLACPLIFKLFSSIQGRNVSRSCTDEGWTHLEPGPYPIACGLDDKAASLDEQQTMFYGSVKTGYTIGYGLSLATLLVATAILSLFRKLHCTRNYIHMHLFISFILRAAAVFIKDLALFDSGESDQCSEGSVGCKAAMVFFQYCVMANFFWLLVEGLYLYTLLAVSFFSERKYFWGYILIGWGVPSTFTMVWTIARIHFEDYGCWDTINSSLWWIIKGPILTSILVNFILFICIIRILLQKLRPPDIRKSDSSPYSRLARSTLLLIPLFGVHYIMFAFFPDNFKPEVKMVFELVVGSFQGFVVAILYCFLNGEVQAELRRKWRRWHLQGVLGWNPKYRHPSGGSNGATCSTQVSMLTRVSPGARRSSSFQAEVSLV
# protocol_details: Filter binding assay, membranes of cells transiently transfected with human VPAC1, 125I-labeled VIP tracer (Table 2)
# Parameters: expressed in transfected cells
# measurement_context: read-out: Human VPAC1 Receptor Binding
Where no end group is shown, it is not given here. [ ]: non-standard residue; d: D form. The star is where a group is joined. hArg = N=C(N)NCCCC[C@H](N)C(=O)O; Hexanoyl = CCCCCC(=O)*
One number for each entry, in µM.

Example substances with recorded IC50:
substance | IC50 [µM]
Hexanoyl-HSDAVFTENYTRLRKQVAAKKYLQSIKNKRYGGPSSGAPPPS [Agonist P159] | 0.131
Hexanoyl-HSDAVFTDNYTRLRKQVAGKKYLQSIKNKRYGGPSSGAPPPS [Agonist P275] | 0.558
Hexanoyl-HSDAVFTDNYTRLRKQVAAKKYAQSIKNKRYGGPSSGAPPPS [Agonist P235] | 1.34
H-HSDAVFTDNYTRLRKQVAAKKYLQSI[hArg]NKRYGGPSSGAPPPS [Agonist P22] | 0.123
Hexanoyl-HSDAVFTDNYTRLRKQVAAKKYLQQIKNKRYGGPSSGAPPPS [Agonist P124] | 0.211

Now take the following substance into account.
Field IC50 (entry Hexanoyl-HSDAVFTDNYTRL[hArg]KQVAAKKYLQSIKNKRYGGPSSGAPPPS [Agonist P305] ) reads 0.268
